Assay: In vivo pharmacokinetics in mice
Settings: male, RjOrl:SWISS (CD1), mouse, plasma, PO 20 mg kg-1
quantity: Cmax (ng/mL)
One number for each entry, in ng/mL.

Exercise: Entry C=CC(=O)Nc1cccc(-c2c(-c3ccc(N4CCN(C)CC4)cc3)[nH]c3ncnc(OCC(C)C)c23)c1 [Compound 19h] has what Cmax?
Key: 56

* * *

Assay: In vivo pharmacokinetics in mice
Details: male, RjOrl:SWISS (CD1), mouse, plasma, IP 20 mg kg-1
quantity: AUC(0-t)

Exercise: Which AUC(0-t) is reported for this molecule? C=CC(=O)Nc1cccc(-c2c(-c3ccc(N4CCN(C)CC4)cc3)[nH]c3ncnc(OCC(C)C)c23)c1 [Compound 19h]
Key: 2870 ng·h/mL
